System: Escherichia coli TOP10;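 note: peptides expressed intracellularly from a pBAD plasmid library in pooled LB shake-flask culture, induced with 0.3% L-arabinose, DNA abundance read by NGS, three biological replicates, DESeq2 with apeglm shrinkage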
method_notes: shrunken log2 fold change of peptide-encoding DNA abundance (4.5 h post-induction vs induction); higher = less antimicrobial activity (less host growth inhibition)
test_context: time post-induction: 4.5 h; library: site-saturation at positions 5, 18, 19, 20
Assignment: determine reported shrunken log2 fold change for the given sequences.
Answers are plain numbers.

{"sequence_record": "RRIRPRPPRLPRPRPRPPTEPRP", "shrunken log2 fold change": 0.306}
{"sequence_record": "RRIRYRPPRLPRPRPRPKLCPRP", "shrunken log2 fold change": -0.0301}
{"sequence_record": "RRIRLRPPRLPRPRPRPVQKPRP", "shrunken log2 fold change": 0.113}
{"sequence_record": "RRIRHRPPRLPRPRPRPYGEPRP", "shrunken log2 fold change": -1.23}
{"sequence_record": "RRIRGRPPRLPRPRPRPIFVPRP", "shrunken log2 fold change": 0.42}
{"sequence_record": "RRIRKRPPRLPRPRPRPDIPPRP", "shrunken log2 fold change": -0.109}

Consider the following items and state reported shrunken log2 fold change for each.
1. RRIRQRPPRLPRPRPRPIKMPRP
2. RRIRFRPPRLPRPRPRPNDMPRP
3. RRIRDRPPRLPRPRPRPSFIPRP
4. RRIRIRPPRLPRPRPRPVREPRP
5. RRIRDRPPRLPRPRPRPPLDPRP

Response:
-0.39
-0.388
-0.572
0.201
0.652

Record shrunken log2 fold change per entry; entries follow.
1. RRIRPRPPRLPRPRPRPTWDPRP
2. RRIRFRPPRLPRPRPRPRHWPRP
3. RRIRYRPPRLPRPRPRPSHVPRP
4. RRIRSRPPRLPRPRPRPCCKPRP

Response:
1. 0.42
2. 0.437
3. -1.58
4. 0.0569
